Reference source for all entries: ChEMBL document CHEMBL5308541

- System: Plasmodium falciparum
- PROTOCOL NOTES: Primary screen in NF54 nanoGlo assay, in single point, at 2uM, 72h
- Assay type: functional, Erythrocyte
- EXPERIMENTAL CONDITIONS: timepoint 72 hour
Among all 150,000 compounds or so, about 540 (0.36%) showed an effect of 50% or more. Many of the other results were omitted from the sample, so strong results are more common in it than they were.
MEASURE: % Inhibition (%)
Expressed in %, but write only the number.

Study these solved cases before continuing.
# COMPOUND, UNIT OF MEASUREMENT, % Inhibition
rows = [
    ("Cc1nc(C)c(C)c(N2CC(OCc3ccccc3)C2)n1", "%", -11),
    ("CC1(N2CCC2)CCC(NC[C@H]2CCN(Cc3ccccc3)C2)CC1 (stereo partly specified)", "%", 73),
    ("Cc1cccc2c(-c3n[nH]c4ncnc(N)c34)c[nH]c12", "%", -3),
    ("Cc1cc(=O)n(CCN2CCN(C(=O)c3ccc[nH]3)CC2)c(=O)[nH]1", "%", -9),
    ("CCN1C[C@H](Nc2nc(C)nc3sccc23)[C@@H](OC)C1", "%", 99),
    ("CCN(Cc1cc(F)ccc1-n1cccn1)CC1CCN(C2CCN(C)CC2)CC1", "%", 16),
    ("CCN(Cc1cccc(OC2CCCC2)c1)CC1CCN(C2CCN(C)CC2)CC1", "%", 20),
    ("c1ccc(CN2CCC[C@H](CNC3CCN(c4ccc5c(c4)OCO5)CC3)C2)cc1", "%", 14),
    ("CNc1nc(N[C@H]2CCCN(Cc3ccc(Cl)cc3)C2)nc2c1CCC2", "%", 49),
    ("Cn1cc(-c2cncc(C(=O)NC3CCN(c4cccc(F)c4)CC3)c2)cn1", "%", 50),
]

Switching to the query record.
Consider the compound shown here: "Fc1ccc(-n2cc(CNCCC3CCN(c4ccncc4)CC3)cn2)cc1" What is its recorded % Inhibition?
91

---

- Test system: Plasmodium falciparum
- PROTOCOL NOTES: Primary screen in NF54 nanoGlo assay, in single point, at 2uM, 72h
- Format: functional, Erythrocyte
- EXPERIMENTAL CONDITIONS: timepoint 72 hour
Among all 150,000 compounds or so, about 540 (0.36%) showed an effect of 50% or more. Many of the other results were omitted from the sample, so strong results are more common in it than they were.
Measured % Inhibition values are reported for all entries that follow.
Expressed in %, but write only the number.

Study these solved cases before continuing.
# MOLECULE, % Inhibition [%]
measured = [
    ("CCN1CCN(c2ccc(CNCc3cccc(O)c3)cc2F)CC1", 90),
    ("Cc1cc(=O)[nH]c(-n2nc(C)cc2NC(=O)C(=O)N2CCC[C@H](C)C2)n1", 4),
    ("CCCCN(C)C[C@@H](C)NC(=O)CCCN1CCN(c2ccccc2)CC1", -5),
]

Consider the molecule shown here: "Cc1cc(=O)[nH]c(-n2nc(C)cc2NC(=O)[C@H](C)n2nc3c(cc2=O)CCC3)n1" What is its recorded % Inhibition?
-7

Consider the molecule shown here: "CNc1cc(C)nc2cc(OC)ccc12" What is its recorded % Inhibition?
-6

Consider the molecule shown here: "Cc1cc(O)c(Cl)cc1-c1ccc2ncnc(N)c2c1" What is its recorded % Inhibition?
-5

Consider the molecule shown here: "c1ccc(CN2CCC(CCNC[C@@H]3CCCN4CCCC[C@H]34)CC2)cc1" What is its recorded % Inhibition?
57

Consider the molecule shown here: CC(CCO)CNc1nc(NCC(C)CCO)c2ccccc2n1 (configuration not stated) What is its recorded % Inhibition?
1

Consider the molecule shown here: Brc1ccc2[nH]c3c(c2c1)CCCC3NC1CCc2[nH]cnc2C1 (configuration not stated) What is its recorded % Inhibition?
98

Consider the molecule shown here: "COCCN1CC[C@H](CN(C)c2ccnc3cc(Cl)ccc23)C1" What is its recorded % Inhibition?
98

Consider the molecule shown here: "O[C@@]1(c2c[nH]nn2)CCN(c2ccnc3cc(Cl)ccc23)C1" What is its recorded % Inhibition?
44

Consider the molecule shown here: "Cc1c(CN2CCC(O)(Cn3ccnc3)CC2)[nH]c2c(Cl)cccc12" What is its recorded % Inhibition?
95

Consider the molecule shown here: "COCCN1CCC(Nc2nccnc2NC2CCN(CCOC)CC2)CC1" What is its recorded % Inhibition?
1

Consider the molecule shown here: "OC1(Cn2ccnc2)CCN(Cc2ccnc3ccccc23)CC1" What is its recorded % Inhibition?
-5

Consider the molecule shown here: "COc1cc2nc(NCC3(N4CCN(C)CC4)CCCC3)cc(C)c2cc1OC" What is its recorded % Inhibition?
55

Consider the molecule shown here: "CNc1cc([C@H]2C[C@@H](NC3CC(C)(C)NC(C)(C)C3)C2)ncn1" What is its recorded % Inhibition?
11

Consider the molecule shown here: "CN([C@@H](c1ccccc1)c1ccccc1Br)S(=O)(=O)c1c[nH]c2ncccc12" What is its recorded % Inhibition?
60

Consider the molecule shown here: "CN(c1ccccc1)c1ccc(CN2CCN([C@H]3CCNC3)CC2)cc1" What is its recorded % Inhibition?
68

Consider the molecule shown here: "NCC1(O)CCN(c2ccnc3cc(F)c(Cl)cc23)CC1" What is its recorded % Inhibition?
95

Consider the molecule shown here: "COc1ccccc1N1CCN(C2CCN(c3ccc(C(=O)N[C@@H](C)c4ccccc4)cc3)CC2)CC1" What is its recorded % Inhibition?
-11

Consider the molecule shown here: "Clc1cc(Nc2c3ccccc3nc3ccccc23)ccc1Oc1ccc2ccccc2c1Cl" What is its recorded % Inhibition?
-10

Consider the molecule shown here: "COc1ccc2nc3cc(Cl)ccc3c(O)c2c1" What is its recorded % Inhibition?
65
